system: HCT-116 colon; test: NCI tumour cell line growth inhibition, 48 h
Listed here are molecules together with their documented log10 TGI.
ATTRIBUTE MEASURED: log10 TGI (log10 of the value in µM)

[[record]]
molecule = "CN(C)c1ccc(C(=C(c2ccc(N(C)C)cc2)c2ccc(N(C)C)cc2)c2ccc(N(C)C)cc2)cc1"
experimental_system = "HCT-116 colon"
value_observed = 1.62

[[record]]
molecule = "CCN(Cc1cccc(F)c1)c1ccc(CO)c(Cl)c1"
experimental_system = "HCT-116 colon"
value_observed = 0.77

[[record]]
molecule = "Cc1ccsc1/C=N/Nc1nc2ccccc2s1"
experimental_system = "HCT-116 colon"
value_observed = 1.37

[[record]]
molecule = "N#CC1=C(N)n2c(s/c(=C\\c3ccc(Cl)cc3)c2=O)=C(c2nc3ccccc3[nH]2)C1c1ccc(Cl)cc1 (stereo not drawn)"
experimental_system = "HCT-116 colon"
value_observed = 0.56

[[record]]
molecule = "COC(=O)[C@]1(c2cc3ccccc3n2S(=O)(=O)c2ccccc2)CC2CN(C(C)=O)C1CC2=O (stereo partly drawn)"
experimental_system = "HCT-116 colon"
value_observed = 0.62

[[record]]
molecule = "CCC[CH2][Sn]1([CH2]CCC)[O]CC(Cc2ccccc2)[O]1 (stereo not drawn)"
experimental_system = "HCT-116 colon"
value_observed = 1.13

[[record]]
molecule = "COc1ccc(C(=O)/C=C/c2ccc(C)cc2)cc1OC"
experimental_system = "HCT-116 colon"
value_observed = 1.25

[[record]]
molecule = "CN[C@H]1C=C[C@@H]2/C=C(C)/C=C/[C@@H](C)[C@H]([C@H](C)[C@H](O)[C@@H](C)NC(C)=O)OC(=O)/C=C/C=C(C)\\C=C\\[C@]2(C)C1"
experimental_system = "HCT-116 colon"
value_observed = 1.61

[[record]]
molecule = "C#Cc1cccc(N2C(=O)CCC2=O)c1"
experimental_system = "HCT-116 colon"
value_observed = 1.36

[[record]]
molecule = "O=C(c1ccccc1)N1CCN(C(=S)N(C(=O)c2ccccc2)c2ccccc2)C1=S"
experimental_system = "HCT-116 colon"
value_observed = 1.10

